Molecular target: AXL (Homo sapiens, UniProt P30530)
Sequence (P30530 26-894): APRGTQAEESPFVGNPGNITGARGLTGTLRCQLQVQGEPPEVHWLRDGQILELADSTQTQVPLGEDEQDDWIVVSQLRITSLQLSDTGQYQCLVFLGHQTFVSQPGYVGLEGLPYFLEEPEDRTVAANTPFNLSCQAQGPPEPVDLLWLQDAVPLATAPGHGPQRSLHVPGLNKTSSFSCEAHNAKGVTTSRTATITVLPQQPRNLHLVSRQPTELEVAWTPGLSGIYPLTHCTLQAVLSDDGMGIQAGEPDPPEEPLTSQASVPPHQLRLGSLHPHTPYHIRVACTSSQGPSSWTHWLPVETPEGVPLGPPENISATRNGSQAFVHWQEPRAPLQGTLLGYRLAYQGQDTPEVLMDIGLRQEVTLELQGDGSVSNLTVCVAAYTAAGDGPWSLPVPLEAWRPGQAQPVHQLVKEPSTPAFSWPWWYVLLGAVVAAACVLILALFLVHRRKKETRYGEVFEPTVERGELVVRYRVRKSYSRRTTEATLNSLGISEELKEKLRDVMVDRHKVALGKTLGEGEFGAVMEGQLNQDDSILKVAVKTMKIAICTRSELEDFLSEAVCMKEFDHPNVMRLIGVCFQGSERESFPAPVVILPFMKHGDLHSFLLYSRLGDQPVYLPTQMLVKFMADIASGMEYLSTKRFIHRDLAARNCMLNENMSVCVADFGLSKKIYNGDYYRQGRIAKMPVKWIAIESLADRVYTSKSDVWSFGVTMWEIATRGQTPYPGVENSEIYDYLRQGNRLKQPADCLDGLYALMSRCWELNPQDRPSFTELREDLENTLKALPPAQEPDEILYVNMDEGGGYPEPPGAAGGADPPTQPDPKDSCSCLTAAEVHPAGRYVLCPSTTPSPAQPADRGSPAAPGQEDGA
pKi: −log10 of the molar value. Where a name gives a salt, the structure may show the parent alone.
REPORTED_ENDPOINT: pKi

>>> df
                                   compound  reported_endpoint   measurement
0  CC[C@H](C)c1cc2c(N[C@H]3CC[C@H](N)CC3)c(C(=O)Nc3ccc(F)cc3)cnc2[nH]1 [Compound 156]                pKi  5.00 to 6.00
1  CCCc1cc2c(N[C@H]3CC[C@H](N)CC3)c(C(=O)NC)cnc2[nH]1 [Compound 139]                pKi  6.00 to 7.00
2  CCC[C@H](C)c1cc2c(N[C@H]3CC[C@H](N)CC3)c(C(=O)Nc3ccc(F)cc3)cnc2[nH]1 [Compound 149]                pKi  5.00 to 6.00

Query block: Recorded pKi of CCCc1cc2c(N[C@H]3CC[C@H](N)CC3)c(-c3ccnc(N4CCCC4)n3)cnc2[nH]1 [Compound 118, hydrochloride] , please.
Result block: 6.00 to 7.00

Hey, just so you know, these numbers are from patent US20200071326A1.
